Details: in ethanol, 303.15 K
value.kind: solubility (mole fraction)

INSERT INTO results (compound_structure, experimental_result) VALUES
  ('Nc1ccc(S(=O)(=O)Nc2ccc(Cl)nn2)cc1', 0.00616);

---

Settings: in n-butanol, 303.15 K
value.kind: solubility (mole fraction)

INSERT INTO assay_data (compound_structure, experimental_result) VALUES
  ('Nc1ccc(S(=O)(=O)Nc2ccc(Cl)nn2)cc1', 0.00531);

---

Conditions: in ethanol, 298.15 K
value.kind: solubility (mole fraction)

INSERT INTO results (compound_structure, experimental_result) VALUES
  ('Nc1ccc(S(=O)(=O)Nc2ccc(Cl)nn2)cc1', 0.00543);

---

Conditions: in ethanol, 293.15 K
value.kind: solubility (mole fraction)

INSERT INTO assay_data (compound_structure, experimental_result) VALUES
  ('Nc1ccc(S(=O)(=O)Nc2ccc(Cl)nn2)cc1', 0.00484);

---

Conditions: in ethyl acetate, 288.15 K
value.kind: solubility (mole fraction)

INSERT INTO results (compound_structure, experimental_result) VALUES
  ('Nc1ccc(S(=O)(=O)Nc2ccc(Cl)nn2)cc1', 0.0141);

---

Conditions: in ethanol, 323.15 K
value.kind: solubility (mole fraction)

INSERT INTO measurements (compound_structure, experimental_result) VALUES
  ('Nc1ccc(S(=O)(=O)Nc2ccc(Cl)nn2)cc1', 0.0101);

---

Details: in ethanol, 283.15 K
value.kind: solubility (mole fraction)

INSERT INTO results (compound_structure, experimental_result) VALUES
  ('Nc1ccc(S(=O)(=O)Nc2ccc(Cl)nn2)cc1', 0.00381);

---

Settings: in isopropanol, 283.15 K
value.kind: solubility (mole fraction)

INSERT INTO results (compound_structure, value_kind, experimental_result) VALUES
  ('Nc1ccc(S(=O)(=O)Nc2ccc(Cl)nn2)cc1', 'solubility (mole fraction)', 0.0031);

---

Settings: in isopropanol, 313.15 K
value.kind: solubility (mole fraction)

INSERT INTO assay_data (compound_structure, value_kind, experimental_result) VALUES
  ('Nc1ccc(S(=O)(=O)Nc2ccc(Cl)nn2)cc1', 'solubility (mole fraction)', 0.00614);

---

Settings: in 1,4-dioxane, 308.15 K
value.kind: solubility (mole fraction)

INSERT INTO assay_data (compound_structure, experimental_result) VALUES
  ('Nc1ccc(S(=O)(=O)Nc2ccc(Cl)nn2)cc1', 0.159);

---

Conditions: in methanol, 323.15 K
value.kind: solubility (mole fraction)

INSERT INTO results (compound_structure, experimental_result) VALUES
  ('Nc1ccc(S(=O)(=O)Nc2ccc(Cl)nn2)cc1', 0.0109);

---

Details: in acetone, 313.15 K
value.kind: solubility (mole fraction)

INSERT INTO measurements (compound_structure, value_kind, experimental_result) VALUES
  ('Nc1ccc(S(=O)(=O)Nc2ccc(Cl)nn2)cc1', 'solubility (mole fraction)', 0.131);

---

Conditions: in n-butanol, 318.15 K
value.kind: solubility (mole fraction)

INSERT INTO results (compound_structure, experimental_result) VALUES
  ('Nc1ccc(S(=O)(=O)Nc2ccc(Cl)nn2)cc1', 0.00768);

---

Details: in ethanol, 288.15 K
value.kind: solubility (mole fraction)

INSERT INTO results (compound_structure, value_kind, experimental_result) VALUES
  ('Nc1ccc(S(=O)(=O)Nc2ccc(Cl)nn2)cc1', 'solubility (mole fraction)', 0.00432);

---

Conditions: in n-butanol, 323.15 K
value.kind: solubility (mole fraction)

INSERT INTO results (compound_structure, experimental_result) VALUES
  ('Nc1ccc(S(=O)(=O)Nc2ccc(Cl)nn2)cc1', 0.00867);

---

Conditions: in ethanol, 318.15 K
value.kind: solubility (mole fraction)

INSERT INTO measurements (compound_structure, value_kind, experimental_result) VALUES
  ('Nc1ccc(S(=O)(=O)Nc2ccc(Cl)nn2)cc1', 'solubility (mole fraction)', 0.00879);

---

Settings: in ethyl acetate, 308.15 K
value.kind: solubility (mole fraction)

INSERT INTO results (compound_structure, value_kind, experimental_result) VALUES
  ('Nc1ccc(S(=O)(=O)Nc2ccc(Cl)nn2)cc1', 'solubility (mole fraction)', 0.0198);

---

Conditions: in ethyl acetate, 313.15 K
value.kind: solubility (mole fraction)

INSERT INTO assay_data (compound_structure, value_kind, experimental_result) VALUES
  ('Nc1ccc(S(=O)(=O)Nc2ccc(Cl)nn2)cc1', 'solubility (mole fraction)', 0.0219);

---

Settings: in ethyl acetate, 323.15 K
value.kind: solubility (mole fraction)

INSERT INTO results (compound_structure, experimental_result) VALUES
  ('Nc1ccc(S(=O)(=O)Nc2ccc(Cl)nn2)cc1', 0.0268);

---

Details: in acetonitrile, 308.15 K
value.kind: solubility (mole fraction)

INSERT INTO measurements (compound_structure, experimental_result) VALUES
  ('Nc1ccc(S(=O)(=O)Nc2ccc(Cl)nn2)cc1', 0.0239);

---

Conditions: in isopropanol, 323.15 K
value.kind: solubility (mole fraction)

INSERT INTO assay_data (compound_structure, value_kind, experimental_result) VALUES
  ('Nc1ccc(S(=O)(=O)Nc2ccc(Cl)nn2)cc1', 'solubility (mole fraction)', 0.00792);

---

Conditions: in 1,4-dioxane, 298.15 K
value.kind: solubility (mole fraction)

INSERT INTO assay_data (compound_structure, experimental_result) VALUES
  ('Nc1ccc(S(=O)(=O)Nc2ccc(Cl)nn2)cc1', 0.129);

---

Details: in ethyl acetate, 283.15 K
value.kind: solubility (mole fraction)

INSERT INTO results (compound_structure, value_kind, experimental_result) VALUES
  ('Nc1ccc(S(=O)(=O)Nc2ccc(Cl)nn2)cc1', 'solubility (mole fraction)', 0.0135);

---

Conditions: in ethyl acetate, 298.15 K
value.kind: solubility (mole fraction)

INSERT INTO assay_data (compound_structure, experimental_result) VALUES
  ('Nc1ccc(S(=O)(=O)Nc2ccc(Cl)nn2)cc1', 0.0165);

---

Details: in acetone, 323.15 K
value.kind: solubility (mole fraction)

INSERT INTO measurements (compound_structure, value_kind, experimental_result) VALUES
  ('Nc1ccc(S(=O)(=O)Nc2ccc(Cl)nn2)cc1', 'solubility (mole fraction)', 0.165);

---

Conditions: in acetone, 298.15 K
value.kind: solubility (mole fraction)

INSERT INTO assay_data (compound_structure, value_kind, experimental_result) VALUES
  ('Nc1ccc(S(=O)(=O)Nc2ccc(Cl)nn2)cc1', 'solubility (mole fraction)', 0.0908);

---

Conditions: in isopropanol, 318.15 K
value.kind: solubility (mole fraction)

INSERT INTO measurements (compound_structure, experimental_result) VALUES
  ('Nc1ccc(S(=O)(=O)Nc2ccc(Cl)nn2)cc1', 0.00702);

---

Conditions: in ethyl acetate, 303.15 K
value.kind: solubility (mole fraction)

INSERT INTO measurements (compound_structure, experimental_result) VALUES
  ('Nc1ccc(S(=O)(=O)Nc2ccc(Cl)nn2)cc1', 0.0179);

---

Conditions: in methanol, 283.15 K
value.kind: solubility (mole fraction)

INSERT INTO results (compound_structure, value_kind, experimental_result) VALUES
  ('Nc1ccc(S(=O)(=O)Nc2ccc(Cl)nn2)cc1', 'solubility (mole fraction)', 0.00473);

---

Conditions: in n-butanol, 283.15 K
value.kind: solubility (mole fraction)

INSERT INTO measurements (compound_structure, value_kind, experimental_result) VALUES
  ('Nc1ccc(S(=O)(=O)Nc2ccc(Cl)nn2)cc1', 'solubility (mole fraction)', 0.00335);

---

Details: in 1,4-dioxane, 323.15 K
value.kind: solubility (mole fraction)

INSERT INTO results (compound_structure, experimental_result) VALUES
  ('Nc1ccc(S(=O)(=O)Nc2ccc(Cl)nn2)cc1', 0.235);

---

Settings: in acetonitrile, 298.15 K
value.kind: solubility (mole fraction)

INSERT INTO measurements (compound_structure, experimental_result) VALUES
  ('Nc1ccc(S(=O)(=O)Nc2ccc(Cl)nn2)cc1', 0.0213);

---

Conditions: in n-butanol, 313.15 K
value.kind: solubility (mole fraction)

INSERT INTO results (compound_structure, experimental_result) VALUES
  ('Nc1ccc(S(=O)(=O)Nc2ccc(Cl)nn2)cc1', 0.00676);
